Please respond with reported IC50 for every item in the list.
# TARGET_SYSTEM: CSF-1R (Homo sapiens)
# Construct: purchased Invitrogen PV3249 (lot 662393N)
# Sequence (P07333 20-972): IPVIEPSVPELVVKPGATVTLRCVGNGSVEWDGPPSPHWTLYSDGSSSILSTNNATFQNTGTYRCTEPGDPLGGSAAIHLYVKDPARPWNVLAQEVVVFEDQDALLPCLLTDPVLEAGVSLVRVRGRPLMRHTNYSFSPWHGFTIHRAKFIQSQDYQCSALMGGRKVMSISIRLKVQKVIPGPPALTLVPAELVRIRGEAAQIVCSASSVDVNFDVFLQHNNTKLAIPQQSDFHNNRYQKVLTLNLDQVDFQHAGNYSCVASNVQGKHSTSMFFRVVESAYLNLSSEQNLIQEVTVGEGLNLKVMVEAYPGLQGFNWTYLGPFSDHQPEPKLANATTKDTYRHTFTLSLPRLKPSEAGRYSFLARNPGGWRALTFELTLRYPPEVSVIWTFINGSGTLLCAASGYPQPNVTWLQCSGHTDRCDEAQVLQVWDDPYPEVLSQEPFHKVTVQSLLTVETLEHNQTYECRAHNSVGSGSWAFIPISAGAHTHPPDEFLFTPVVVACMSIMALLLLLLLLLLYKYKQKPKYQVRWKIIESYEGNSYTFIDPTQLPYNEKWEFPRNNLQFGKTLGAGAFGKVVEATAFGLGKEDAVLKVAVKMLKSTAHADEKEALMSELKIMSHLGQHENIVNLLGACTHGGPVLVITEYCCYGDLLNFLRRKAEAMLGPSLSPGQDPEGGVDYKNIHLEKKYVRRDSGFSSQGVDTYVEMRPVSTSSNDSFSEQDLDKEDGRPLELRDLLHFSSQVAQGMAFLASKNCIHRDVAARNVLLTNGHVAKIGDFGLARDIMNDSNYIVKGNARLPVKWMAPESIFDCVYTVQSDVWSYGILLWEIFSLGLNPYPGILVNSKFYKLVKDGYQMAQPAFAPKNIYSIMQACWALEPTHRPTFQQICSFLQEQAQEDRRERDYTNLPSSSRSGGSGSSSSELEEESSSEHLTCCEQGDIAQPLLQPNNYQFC
# TEST_DETAILS: Caliper biochemical assay, CSF-1R
# CONDITION_DETAILS: Table 6

Below: 6 compounds and their reported IC50.
COMPOUND | TARGET_SYSTEM | IC50
Cc1ccc(-c2noc([C@H]3C[C@@H]3F)n2)cc1NC(=O)c1cnc2cc(N3CCCC3)ccn12 | CSF-1R (Homo sapiens) | ≤ 50 nM
O=C(Nc1cc(-c2noc([C@H]3CC(F)(F)CN3)n2)ccc1Cl)c1cnc2ccccn12 | CSF-1R (Homo sapiens) | 50 to 500 nM
Cc1ccc(-c2noc(C(C)NS(C)(=O)=O)n2)cc1NC(=O)c1cnc2ccccn12 (single isomer, unassigned) [Compound I-237] | CSF-1R (Homo sapiens) | 500 to 5000 nM
CCc1nc(-c2ccc(C)c(NC(=O)c3cnc4ccccn34)c2)no1 | CSF-1R (Homo sapiens) | ≤ 50 nM
COC(=O)N1CC(c2nc(-c3ccc(C)c(NC(=O)c4cnc5cc(OC[C@@H](C)O)ccn45)c3)no2)C1 | CSF-1R (Homo sapiens) | ≤ 50 nM
CNC(=O)N1CC(c2nc(-c3ccc(C)c(NC(=O)c4cnc5ccccn45)c3)no2)C1 | CSF-1R (Homo sapiens) | 5000 to 30000 nM

// IC50 value for `Cc1ccc(-c2noc([C@H]3CCN3S(=O)(=O)C3CCOCC3)n2)cc1NC(=O)c1cnc2ccccn12` : ≤ 50 nM

---

# TARGET_SYSTEM: wtKIT (Homo sapiens, UniProt P10721)
# Construct: 1888289AM in the reaction mixtures
# Sequence (P10721 26-976): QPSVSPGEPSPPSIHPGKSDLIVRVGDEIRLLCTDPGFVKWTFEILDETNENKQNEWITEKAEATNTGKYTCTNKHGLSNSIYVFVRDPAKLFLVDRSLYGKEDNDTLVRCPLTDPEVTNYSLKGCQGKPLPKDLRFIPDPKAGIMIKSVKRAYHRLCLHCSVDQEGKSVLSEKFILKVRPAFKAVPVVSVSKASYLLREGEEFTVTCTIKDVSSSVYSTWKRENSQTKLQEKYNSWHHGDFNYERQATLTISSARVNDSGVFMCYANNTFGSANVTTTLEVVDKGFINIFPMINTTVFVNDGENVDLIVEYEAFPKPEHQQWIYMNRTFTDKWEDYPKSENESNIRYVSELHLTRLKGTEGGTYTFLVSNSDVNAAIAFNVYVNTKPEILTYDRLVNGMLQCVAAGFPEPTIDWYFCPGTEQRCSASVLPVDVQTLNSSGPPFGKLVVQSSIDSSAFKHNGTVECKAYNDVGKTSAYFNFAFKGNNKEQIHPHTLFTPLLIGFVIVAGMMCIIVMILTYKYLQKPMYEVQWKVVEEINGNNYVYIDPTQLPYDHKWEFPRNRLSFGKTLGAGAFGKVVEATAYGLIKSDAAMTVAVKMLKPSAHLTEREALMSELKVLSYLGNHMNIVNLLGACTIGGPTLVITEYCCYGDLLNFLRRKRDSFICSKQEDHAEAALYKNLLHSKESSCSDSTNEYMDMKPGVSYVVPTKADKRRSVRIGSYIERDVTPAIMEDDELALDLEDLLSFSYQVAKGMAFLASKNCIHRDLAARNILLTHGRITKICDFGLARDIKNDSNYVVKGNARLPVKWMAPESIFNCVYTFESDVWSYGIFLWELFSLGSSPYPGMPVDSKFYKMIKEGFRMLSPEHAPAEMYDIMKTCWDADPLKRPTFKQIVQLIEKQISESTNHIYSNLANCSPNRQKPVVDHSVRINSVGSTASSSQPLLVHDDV
# TEST_DETAILS: Caliper biochemical assay, wtKIT
# CONDITION_DETAILS: Table 6, read-out: KIT Biochemical IC50 avg
pIC50: −log10 of the molar value.
OBSERVATION_TYPE: pIC50

Answered examples (3):
MOLECULE | RESULT
Cc1ccc(-c2noc(C3CCS(=O)(=O)C3)n2)cc1NC(=O)c1cnc2ccccn12 (racemic) | 6.30 to 7.30
COCCN1CC[C@H]1c1nc(-c2ccc(C)c(NC(=O)c3cnc4ccccn34)c2)no1 (racemic) | 6.30 to 7.30
Cc1ccc(-c2noc(C3COC3)n2)cc1NC(=O)c1cnc2ccccn12 | ≥ 7.30

# batch: return pIC50 for each of the 7 molecules below
1. O=C(Nc1cc(-c2noc([C@H]3C[C@@H]3F)n2)ccc1Cl)c1cnc2ccccn12
2. Cc1ccc(-c2noc(C3CC(F)C3)n2)cc1NC(=O)c1cnc2ccccn12 (stereo not drawn)
3. COC(=O)N1CC(c2nc(-c3ccc(C)c(NC(=O)c4cnc5cc(O[C@@H](C)CO)ccn45)c3)no2)C1 (single isomer, unassigned)
4. Cc1ccc(-c2noc(C3CC(O)(c4ccccc4)C3)n2)cc1NC(=O)c1cnc2ccccn12 (stereo not drawn)
5. Cc1ccc(-c2noc([C@H](C)NS(=O)(=O)c3cnn(C)c3)n2)cc1NC(=O)c1cnc2ccccn12 (racemic)
6. COC(=O)N1CC(c2nc(-c3ccc(C#N)c(NC(=O)c4cnc5ccccn45)c3)no2)C1
7. Cc1ccc(-c2noc(C3CCCCO3)n2)cc1NC(=O)c1cnc2ccccn12 (racemic)

Result:
≥ 7.30
≥ 7.30
≥ 7.30
≥ 7.30
≥ 7.30
6.30 to 7.30
≥ 7.30

Give pIC50 for each of the items listed below.
1. Cc1ccc(-c2noc([C@H](C)NS(C)(=O)=O)n2)cc1NC(=O)c1cnc2ccccn12
2. Cc1ccc(-c2noc(C3(C)CC(F)(F)C3)n2)cc1NC(=O)c1cnc2ccccn12
3. Cc1ccc(-c2noc(C3CCN3S(C)(=O)=O)n2)cc1NC(=O)c1cnc2ccccn12 (stereo not drawn) [Compound I-331]
4. Cc1ccc(-c2noc(C3CC(C)(F)C3)n2)cc1NC(=O)c1cnc2ccccn12 (stereo not drawn)
5. Cc1ccc(-c2noc([C@H]3CCN3)n2)cc1NC(=O)c1cnc2cc(C#N)ccn12
6. CNC(=O)N1CC(c2nc(-c3ccc(C)c(NC(=O)c4cnc5ccccn45)c3)no2)C1
7. Cc1ccc(-c2noc([C@H]3CC(=O)CN3)n2)cc1NC(=O)c1cnc2ccccn12
8. COC(=O)N1CC(c2nc(-c3ccc(C)c(NC(=O)c4cnc5cc(OC[C@@H](C)O)ccn45)c3)no2)C1

Result:
≥ 7.30
≥ 7.30
≥ 7.30
≥ 7.30
6.30 to 7.30
≥ 7.30
≥ 7.30
≥ 7.30

Would you mind giving pIC50 for every molecule in the list below?
1. Cc1ccc(-c2noc(C3CCN(C(=O)OC(C)(C)C)C3)n2)cc1NC(=O)c1cnc2ccccn12 (racemic)
2. COC1(OC)CC(c2nc(-c3ccc(C)c(NC(=O)c4cnc5ccccn45)c3)no2)C1
3. Cc1nc(-c2ccc(Cl)c(NC(=O)c3cnc4ccccn34)c2)no1
4. O=C(Nc1cc(-c2noc([C@H]3C[C@@H]3F)n2)ccc1Br)c1cnc2ccccn12

Result:
1. 6.30 to 7.30
2. ≥ 7.30
3. ≥ 7.30
4. ≥ 7.30

Your task in this section: give pIC50 for each listed record.
1. Cc1ccc(-c2noc([C@H]3C[C@@H]3F)n2)cc1NC(=O)c1cnc2ccc(N3CCC3)cn12
2. Cc1ccc(-c2noc(C3CN(C(N)=O)C3)n2)cc1NC(=O)c1cnc2ccccn12
3. Cc1ccc(-c2noc(C3CCN3S(C)(=O)=O)n2)cc1NC(=O)c1cnc2ccccn12 (racemic) [Compound I-356]
4. Cc1ccc(-c2noc([C@H]3C[C@@H]3F)n2)cc1NC(=O)c1cnc2ccc(C#N)cn12
5. Cc1ccc(-c2noc(C3CCN3C(=O)OC(C)(C)C)n2)cc1NC(=O)c1cnc2ccccn12 (racemic)

Result:
1: ≥ 7.30; 2: 6.30 to 7.30; 3: ≥ 7.30; 4: ≥ 7.30; 5: 6.30 to 7.30

Report pIC50 for every entry below.
1. Cc1ccc(-c2noc(C3(O)CC(F)(F)C3)n2)cc1NC(=O)c1cnc2ccccn12
2. COC(=O)C1CC(c2nc(-c3ccc(C)c(NC(=O)c4cnc5ccccn45)c3)no2)C1 (stereo not drawn) [Compound I-366]
3. Cc1ccc(-c2noc(CC3CCCOC3)n2)cc1NC(=O)c1cnc2ccccn12 (racemic)

Result:
["≥ 7.30", "≥ 7.30", "≥ 7.30"]

---

# TEST_DETAILS: Three time point assay for plasma, brain and testes distribution after oral dosing
# Format: in vivo, rat
# CONDITION_DETAILS: rat, oral dosing, time point 0.5 h
OBSERVATION_TYPE: Kp brain/plasma
One number for each entry.

Previously resolved entries follow.
COMPOUND | Kp brain/plasma
Cc1ccc(-c2noc([C@H]3C[C@@H]3F)n2)cc1NC(=O)c1cnc2cc(OC(F)(F)F)ccn12 [Compound I-87] | 0.60
Cc1ccc(-c2noc([C@H]3C[C@@H]3F)n2)cc1NC(=O)c1cnc2cc(OC(C)C)ccn12 [Compound I-88] | 0.27
Cc1ccc(-c2noc(CC(O)C(F)F)n2)cc1NC(=O)c1cnc2ccccn12 (stereo not shown) [Compound I-114] | 0.07

Consider now this further compound.
Recorded Kp brain/plasma (compound COc1ccn2c(C(=O)Nc3cc(-c4noc(CC(O)C(F)F)n4)ccc3C)cnc2c1 (single isomer, unassigned) [Compound I-40] ): 0.09

---

Provide the reported Kp brain/plasma of each item.
# TEST_DETAILS: Three time point assay for plasma, brain and testes distribution after oral dosing
# Assay type: in vivo, rat
# CONDITION_DETAILS: rat, oral dosing, time point 2 h
Give bare numbers.

SMILES_ENTRY | Kp brain/plasma
Cc1nc(-c2ccc(C)c(NC(=O)c3cnc4ccccn34)c2)no1 | 0.94
Cc1ccc(-c2noc([C@@H](C)O)n2)cc1NC(=O)c1cnc2ccccn12 | 0.06

The reported Kp brain/plasma of the compound `O=C(Nc1cc(-c2noc([C@H]3C[C@@H]3F)n2)ccc1Br)c1cnc2ccccn12` was 1.64

---

# TARGET_SYSTEM: MDR1 (MDR1-MDCKII cells) (Homo sapiens, UniProt P08183)
# Construct: host or cells: MDCKII (canine kidney) cells
# Sequence (P08183 whole entry): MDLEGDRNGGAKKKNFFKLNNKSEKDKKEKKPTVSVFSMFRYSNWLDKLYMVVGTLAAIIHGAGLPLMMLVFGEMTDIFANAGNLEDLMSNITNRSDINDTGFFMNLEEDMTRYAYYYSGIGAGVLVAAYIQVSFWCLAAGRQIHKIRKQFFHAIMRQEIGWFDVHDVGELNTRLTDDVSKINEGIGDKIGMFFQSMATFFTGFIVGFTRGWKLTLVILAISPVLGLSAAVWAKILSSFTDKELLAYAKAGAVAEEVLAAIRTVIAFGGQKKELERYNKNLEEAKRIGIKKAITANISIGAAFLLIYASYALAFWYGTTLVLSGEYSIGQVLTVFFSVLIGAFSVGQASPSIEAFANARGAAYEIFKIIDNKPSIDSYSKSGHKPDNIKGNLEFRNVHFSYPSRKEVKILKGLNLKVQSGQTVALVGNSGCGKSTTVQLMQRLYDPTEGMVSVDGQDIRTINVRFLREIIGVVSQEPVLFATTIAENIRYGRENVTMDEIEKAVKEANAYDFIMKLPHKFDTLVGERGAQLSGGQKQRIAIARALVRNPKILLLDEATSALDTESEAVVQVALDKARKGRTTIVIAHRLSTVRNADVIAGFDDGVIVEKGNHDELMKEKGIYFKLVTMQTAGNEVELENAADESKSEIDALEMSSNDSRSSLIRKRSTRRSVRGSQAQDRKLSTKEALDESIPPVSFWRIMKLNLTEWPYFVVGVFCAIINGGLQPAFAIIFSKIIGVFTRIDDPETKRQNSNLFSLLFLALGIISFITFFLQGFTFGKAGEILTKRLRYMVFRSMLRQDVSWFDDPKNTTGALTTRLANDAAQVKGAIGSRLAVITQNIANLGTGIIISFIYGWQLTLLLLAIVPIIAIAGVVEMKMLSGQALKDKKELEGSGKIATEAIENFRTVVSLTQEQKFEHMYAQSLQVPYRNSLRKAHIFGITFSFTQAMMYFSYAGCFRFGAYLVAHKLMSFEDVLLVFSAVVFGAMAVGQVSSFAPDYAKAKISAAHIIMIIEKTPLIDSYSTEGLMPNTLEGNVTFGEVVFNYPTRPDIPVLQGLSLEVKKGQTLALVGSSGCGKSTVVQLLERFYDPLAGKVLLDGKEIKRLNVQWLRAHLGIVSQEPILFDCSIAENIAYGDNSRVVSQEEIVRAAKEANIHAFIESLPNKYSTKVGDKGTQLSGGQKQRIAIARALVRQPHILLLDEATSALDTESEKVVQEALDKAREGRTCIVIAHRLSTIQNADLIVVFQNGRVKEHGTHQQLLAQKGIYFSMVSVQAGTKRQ
# TEST_DETAILS: Permeability in MDR1-MDCKII cells
# Format: in vitro ADME
# CONDITION_DETAILS: MDCKII-MDR1, apical to basolateral
Please provide measured MDCKII-MDR1: Papp A-B for the entries that follow.

Reference set (4 entries):
MOLECULE | RESULT
COC(=O)N1CC(c2nc(-c3ccc(C)c(NC(=O)c4cnn5ccc(Br)cc45)c3)no2)C1 | 11.8 10^−6 cm/s
COC(=O)N1CC(c2nc(-c3ccc(Cl)c(NC(=O)c4cnc5ccccn45)c3)no2)C1 | 22.8 10^−6 cm/s
Cc1ccc(-c2noc(C3CCS(=O)(=O)C3)n2)cc1NC(=O)c1cnc2ccccn12 (racemic) | 3.53 10^−6 cm/s
Cc1ccc(-c2noc(C3CN(C(=O)CO)C3)n2)cc1NC(=O)c1cnc2ccccn12 | 0.83 10^−6 cm/s

Could you report MDCKII-MDR1: Papp A-B for every entry in the following list?
1. Cc1ccc(-c2noc([C@H]3C[C@@H]3F)n2)cc1NC(=O)c1cnc2ccc(C#N)cn12
2. CCCNc1ccn2c(C(=O)Nc3cc(-c4noc([C@H]5C[C@@H]5F)n4)ccc3C)cnc2c1
3. Cc1ccc(-c2noc([C@H]3C[C@@H]3F)n2)cc1NC(=O)c1cnc2ccc(F)cn12

Result:
["17.9 10^−6 cm/s", "3.65 10^−6 cm/s", "20.6 10^−6 cm/s"]

Cited source: patent US20240254119A1
